Each recorded value in this set is attributed to the kinase profiling compilation of Christmann-Franck et al. (2016).

kinase still bound, per cent of control: recorded values
TESTED_SYSTEM: LATS2 (human)
METHOD: KINOMEscan competition binding
MEASUREMENT_CONDITIONS: compound 10.0 µM
Dear colleague, please return just the value in %, with no unit written.

// below: answered compounds
O=C(NC1CC1)c1cccc(-c2ccc3c(NC(=O)C4CC4)n[nH]c3c2)c1
85
CC[C@@H]1C(=O)N(C)c2cnc(Nc3ccc(C(=O)NC4CCN(C)CC4)cc3OC)nc2N1C1CCCC1
100
COc1cc(C(=O)NC2CCN(C)CC2)ccc1Nc1ncc2c(n1)N(C1CCCC1)C(C)CC(=O)N2C (stereo not given)
100
CCN1CCN(Cc2ccc(Nc3ncc4c(n3)N(C)c3ccccc3C(=O)N4C)cc2C(F)(F)F)CC1
91
O=C1Nc2ccc(I)cc2/C1=C/c1cc(Br)c(O)c(Br)c1
81
Cc1cc([C@@H](C)Nc2ccccc2C(=O)O)c2nc(N3CCOCC3)cc(=O)n2c1
63

For the compound C=CC(=O)Nc1cccc(Nc2nc(N[C@H]3CC[C@H](N(C)C)CC3)nc3c2ncn3C(C)C)c1 , what kinase still bound, per cent of control is on record?
70

For the compound CN(C)C/C=C/C(=O)Nc1cccc(Nc2ncc3c(n2)N(C)c2ccccc2C(=O)N3C)c1 , what kinase still bound, per cent of control is on record?
97

For the compound Cc1ccc(NC(=O)c2cccc(C(C)(C)C#N)c2)cc1Nc1ccc2ncn(C)c(=O)c2c1 , what kinase still bound, per cent of control is on record?
99

For the compound N#Cc1c(NC(=O)c2cccc3ccccc23)sc2c1CCCC2 , what kinase still bound, per cent of control is on record?
75

For the compound C=CC(=O)Nc1cccc(Oc2nc(Nc3ccc(N4CCN(C)CC4)cc3OC)ncc2Cl)c1 , what kinase still bound, per cent of control is on record?
100
